# targetOrTestSystem: Cholinesterase (Equus caballus, UniProt P81908)
# Sequence (P81908 whole entry): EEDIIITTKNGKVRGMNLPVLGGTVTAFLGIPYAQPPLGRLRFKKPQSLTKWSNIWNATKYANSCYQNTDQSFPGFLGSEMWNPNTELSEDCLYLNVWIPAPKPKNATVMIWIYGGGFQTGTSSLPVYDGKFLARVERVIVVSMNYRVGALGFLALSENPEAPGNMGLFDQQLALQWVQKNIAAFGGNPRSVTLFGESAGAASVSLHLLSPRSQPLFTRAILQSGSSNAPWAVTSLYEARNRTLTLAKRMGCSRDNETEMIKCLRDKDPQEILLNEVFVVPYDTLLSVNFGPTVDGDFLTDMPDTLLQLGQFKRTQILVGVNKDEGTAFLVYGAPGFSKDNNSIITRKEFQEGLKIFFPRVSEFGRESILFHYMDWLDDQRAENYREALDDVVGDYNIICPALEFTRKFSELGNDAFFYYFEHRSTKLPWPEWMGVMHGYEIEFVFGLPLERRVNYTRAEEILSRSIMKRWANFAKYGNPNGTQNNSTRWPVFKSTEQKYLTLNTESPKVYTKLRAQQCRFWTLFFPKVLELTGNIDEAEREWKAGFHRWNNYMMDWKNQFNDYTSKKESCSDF
# assayNotes: Inhibition of equine serum BChE using acetylthiocholine as substrate after 2 mins
# conditionsUsed: read-out: IC50
pIC50: −log10 of the molar value.
Classify as follows. Reported pIC50 greater than or equal to 5: MET. Reported pIC50 below: NOT MET.

Query: Assess whether reported pIC50 for CN1c2ccc(O)cc2CN2CCc3ccccc3C21 (stereo unspecified) sits at 5 or higher.
Response: NOT MET

Query: Threshold query (pIC50 >= 5) on CC(C)c1ccc(NC(=O)Oc2ccc3c(c2)CN2CCc4ccccc4C2N3C)cc1 (stereo unspecified)
Response: MET

Query: Is reported pIC50 greater than or equal to 5 here: COc1cccc(NC(=O)Oc2ccc3c(c2)CN2CCc4ccccc4C2N3C)c1 (stereo unspecified)
Response: MET

Query: Has COc1ccc2c(c1)CN1CCCc3ccccc3C1N2C (stereo unspecified) a recorded pIC50 greater than or equal to 5?
Response: NOT MET

Query: Hello, I need to know if COc1ccc2c(c1)CN1CCc3ccccc3C1N2C (stereo unspecified) has measured pIC50 not below 5. Thanks!
Response: NOT MET

----------
# assayNotes: Selectivity ratio of IC50 for Electric eel AChE to IC50 for equine serum BChE
parameterMeasured: Ratio IC50

Solved entries:
- compound: "CN1c2ccccc2CN2CCCc3ccccc3C21 (stereo not drawn)"
  Ratio IC50: "> 8.4"
- compound: "CCCCCCCNC(=O)Oc1ccc2c(c1)CN1CCCc3ccccc3C1N2C (stereo not drawn)"
  Ratio IC50: "> 4000"
- compound: "COc1cccc(NC(=O)Oc2ccc3c(c2)CN2CCc4ccccc4C2N3C)c1 (stereo not drawn)"
  Ratio IC50: "> 900"
- compound: "CC(C)c1ccc(NC(=O)Oc2ccc3c(c2)CN2CCCC2N3C)cc1 (stereo not drawn)"
  Ratio IC50: "> 66.6"
- compound: "COc1ccc2c(c1)CN1CCCc3ccccc3C1N2C (stereo not drawn)"
  Ratio IC50: "> 6.7"
- compound: "CC(C)c1ccc(NC(=O)Oc2ccc3c(c2)CN2CCc4ccccc4C2N3C)cc1 (stereo not drawn)"
  Ratio IC50: "> 1500"

Query: Tell me its Ratio IC50 given CCCCCCCNC(=O)Oc1ccc2c(c1)CN1CCc3ccccc3C1N2C (stereo not drawn) as the entry.
Response: > 15000

Query: Give reported Ratio IC50 value for Cc1ccccc1NC(=O)Oc1ccc2c(c1)CN1CCc3ccccc3C1N2C (stereo not drawn)
Response: > 1350
